Could you please report measured growth for the items listed next?
Test system: U251 CNS
Experiment: NCI-60 one-dose screen, 48 h (100 = growth as untreated, 0 = no growth, -100 = all killed)
Conditions: 10 µM unless noted
About 83,000 compounds went through this panel and 20% of them were active in at least one assay; those are over-represented in the sample as a whole.
Respond with the bare value in %.

Q: For the compound shown here, O=c1nc(Nc2cccc(Cl)c2)oc2cc(Cl)oc(=O)c12 , give the reported growth.
Result: 79.6

Q: For the compound shown here, S=c1nc(-c2ccccn2)c(-c2ccccn2)n[nH]1 , give the reported growth.
Result: 102

Q: For the compound shown here, CCOC(=O)c1ccc(C(C)(C)C)cc1 , give the reported growth.
Result: 97.5

Q: For the compound shown here, CC(=O)Nc1ccc(O)c(C)c1 , give the reported growth.
Result: 92.5

Q: For the compound shown here, O=C(NCCc1ccccc1)/C(=C\c1ccc(Cl)cc1Cl)NC(=O)c1ccccc1 , give the reported growth.
Result: 97

Q: For the compound shown here, CCCC(=O)CC(=O)c1ccccc1 , give the reported growth.
Result: 86

Q: For the compound shown here, S=C=Nc1ccc2ccccc2c1 , give the reported growth.
Result: 97.8

Q: For the compound shown here, CCN(C(C)=O)c1ccc([N+](=O)[O-])cc1 , give the reported growth.
Result: 90.8

Q: For the compound shown here, Oc1cccnc1CN1CCCC1 , give the reported growth.
Result: 94.8

Q: For the compound shown here, COC(=O)Cc1cc(COC(C)=O)ccc1C , give the reported growth.
Result: 109

Q: For the compound shown here, Clc1ccc(/C=C/c2ccccn2)cc1 , give the reported growth.
Result: 81.1

Q: For the compound shown here, COc1cc(C(=O)N2CCN(c3ccccc3)CC2)c2ccccc2n1 , give the reported growth.
Result: 11.1

Q: For the compound shown here, CC(=O)C[n+]1ccc(C)cc1Sc1ccccc1C , give the reported growth.
Result: 93.3

Q: For the compound shown here, CCOC(=O)c1cc(Cl)c(O)c(Cl)c1 , give the reported growth.
Result: 104

Q: For the compound shown here, C=CCOc1ccc(Cl)cc1Cl , give the reported growth.
Result: 106

Q: For the compound shown here, CCOC(=O)Nc1nccs1 , give the reported growth.
Result: 98.9

Q: For the compound shown here, Cc1cc(C)cc(OCC(=O)O)c1 , give the reported growth.
Result: 103

Q: For the compound shown here, O=C(CC(CC(=O)c1ccccc1)c1ccccn1)c1ccccc1 , give the reported growth.
Result: 99.3

Q: For the compound shown here, COC1=C(OC)C(=O)C(SC/C=C(\C)CCCC(C)CCCC(C)CCCC(C)C)=CC1=O (stereo not drawn) , give the reported growth.
Result: 15.4

Q: For the compound shown here, CC(=O)c1ccc(C)cc1 , give the reported growth.
Result: 108

Q: For the compound shown here, O=C(CCl)Nc1ccccc1SCc1cc(Cl)cc2c1OCOC2 , give the reported growth.
Result: 88.9

Q: For the compound shown here, COC(CCCl)c1ccc(Cl)cc1 (stereo not drawn) , give the reported growth.
Result: 93.3

Q: For the compound shown here, CN(C)c1ccc(/C=C/C(=O)c2ccc(NC(N)=O)cc2)cc1 , give the reported growth.
Result: 69

Q: For the compound shown here, COC1OC(COC(C)=O)C(OC(C)=O)C(OC(C)=O)C1OC(C)=O (stereo not drawn) , give the reported growth.
Result: 102

Q: For the compound shown here, COc1cc(-c2ccc(NC(=O)CC(C)=O)c(OC)c2)ccc1NC(=O)CC(C)=O , give the reported growth.
Result: 89.6

Q: For the compound shown here, N#C/C(=C\c1ccc2c(c1)OCO2)c1ccccc1 , give the reported growth.
Result: 55

Q: For the compound shown here, COC(=O)C1=C(C)C(=O)CC1 , give the reported growth.
Result: 115

Q: For the compound shown here, O=C1NC(=O)C(c2ccccc2)O1 (stereo not drawn) , give the reported growth.
Result: 101

Hello, the source for this data is PubChem BioAssay (NCI), in case you need it.
